# tested_target: T1, HER2ECDHis (human, UniProt P04626 23-653, biotinylated in the cross-block ELISA (sites not given))
# T1 construct: range 1-653; expressed in HEK-293F; also called soluble HER2; biotinylated HER2ECDHis
# protocol_text: ELISA; competitor 129
% binding vs no competitor by entry:
Express it in %; write the number only.

Reference set (2 entries):
[[record]]
binder = "HuMab 084 (antibody, V domains shown, also called TH1014-084; PC1014-084) VH: QVQLVQSGAEVKKPGSSVKVSCKASGGTFRTYAINWVRQAPGQGLEWMGRINTVLGIVNHAQKFQGRVTITADKSTNTAYMELNSLRSEDTAVYYCAREKGVDYYYGIEVWGQGTTVTVSS VL: DIQMTQSPSSVSASVGDRVTITCRASQGISSWLAWYQHKPGKAPKLLIYVASTLQSGVPSRFSGSGSGTDFTLTISSLQPEDFATYYCQQANSFPLTFGGGTKVEIK"
measurement_kind = "% binding vs no competitor"
readout_units = "%"
measured_result = 104

[[record]]
binder = "HuMab 098 (antibody, V domains shown, also called TH1014-098; PC1014-098) VH: EVQLLESGGGLVQPGGSLRLSCAASGFTFSNYGMSWVRQAPGKGLEWVSAISGSAYSTYYADSVKGRFTISRDNSKNTLWLQMNSLRAEDTAVYYCAKAHYHGSGSYYTLFDYWGQGTLVTVSS VL: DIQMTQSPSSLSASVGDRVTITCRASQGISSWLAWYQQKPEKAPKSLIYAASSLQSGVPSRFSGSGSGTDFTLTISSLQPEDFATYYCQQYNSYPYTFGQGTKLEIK"
measurement_kind = "% binding vs no competitor"
readout_units = "%"
measured_result = 107


Next item in the queue.
Query: // fetch % binding vs no competitor given entry HuMab 091 (antibody, V domains shown, also called TH1014-091; PC1014-091) VH: QVQLQQWGAGLLKPSETLSLTCAVSGGSFSGYYWTWIRQPPGKGLEWIGEIYHSGDTNYNPSLKSRVTISVDTSKNQFSLKLYSVTAADTAVYYCARLYFGSGIYYLDYWGQGTLVTVSS VL: DIQMTQSPSSLSASVGDRVTITCRASQGISSWLVWYQQKPEKAPKSLIYAASSLQSGVPSRFSGSGSGTDFTLTISSLQPEDFATYYCQQYNSFPPTFGQGTKVEIK
Reply: 78
